Cited source: PubChem BioAssay AID449762

Assay: M. tuberculosis growth inhibition, HTS (AID 449762);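 further: bacterial growth assessed after seven days of incubation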
Settings: M. tuberculosis H37Rv growth inhibition, 7H9 media; at 25 µM; hits give high values
In all, about 330,000 compounds went through this assay and about 1,900 (0.58%) were called active. About 4% were inconclusive and are not listed. The list is a sample of the results. Entries with a potency or affinity are not part of this list.
For each entry below, report its inhibition value.

Data request, read-out inhibition, for COc1ccc(CCNC(=O)C(=O)NCc2ccc(C(C)C)cc2)cc1OC
-15.8% (inactive)

Fill in: inhibition of CCOC(=O)c1c(C)[nH]c(C(=O)COC(=O)c2ccc(O)cc2)c1C is ___
-6.58% (inactive)

Entry COc1cc(OC)nc(Oc2ccccc2C(=O)Oc2ccccc2Cl)n1 has what inhibition?
3.91% (inactive)

Look at this molecule and give its reported inhibition. CC(C)NC(=O)NC(=O)COC(=O)c1ccc(OC(F)(F)F)cc1
14.2% (inactive)

Look up inhibition: O=Cc1c(NCc2ccc(Cl)cc2)c2ccccc2[nH]c1=O
2.94% (inactive)

Name the reported inhibition value associated with the molecule CCC(=O)OCC(=O)N=c1sccn1Cc1ccc(C)cc1
6.77% (inactive)

Please look up its inhibition: COc1ccc(CCNCC(=O)Nc2ccc(OC(F)F)cc2)cc1
-4.99% (inactive)

Would you kindly share the measured inhibition for Cc1ccc(Cn2ccsc2=NC(=O)COC(=O)C(C)C)cc1 ?
-7.15% (inactive)

Could you share which inhibition value was measured for O=C(Nc1ccc(OC(F)F)c(Cl)c1)Nc1ccc2c(c1)OCO2 ?
5.38% (inactive)

Recorded inhibition of O=C(COC(=O)c1ccccc1Br)Nc1ccc2[nH]c(=O)[nH]c2c1 , please.
-0.67% (inactive)

Fill in: inhibition of O=C(COC(=O)Cc1ccsc1)Nc1ccccc1 is ___
-4.1% (inactive)
